# System: PPARg:RXRa DBDmut IVT, anti-RXR (DBD mutation: RXRa K156A/R161A, NR concentration 270 nM, RXRa partner concentration 90 nM)
# Assay protocol: PBM binding z-score (relative to random genomic background probes); higher = stronger binding; sequences stand for … in GC…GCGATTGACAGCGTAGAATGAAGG
Decision: PBM binding z-score >= 0.8 yields criterion met, all other cases yield criterion not met.

>>> class("ACAGACAGGTGATGAAGATAACTCAGGCTATCAT")
"criterion not met"
>>> class("TCTATTAGTTGAAGGGCGACCGACGAGTCCGTTT")
"criterion met"
>>> class("CGTCCAAGGTCATAGGAGATCAGTGAAGACAGAT")
"criterion met"
>>> class("CGAACCAGGTCAGAACAGGACAGTGAAGGATGAT")
"criterion met"
>>> class("GCTCGGAGGACTAGGTCAGAGCTTTGTCCGTAGA")
"criterion met"
>>> class("CCTAGTAGTTGACCATAAGGGCAACCGAAGCTCG")
"criterion not met"
>>> class("TCTTGTAAATCAAGCAGGTTAAGAAAGCCTGAGT")
"criterion met"
>>> class("CAGCCTAGGTCAGGCCCAGTATAGGAGGAACGTT")
"criterion not met"
>>> class("AATACAGGGTCATCGAAGGCCAGAGTACGCACAG")
"criterion met"
>>> class("GCTGCTAGGACAACTGATGGTCAGCTAAAGCTCG")
"criterion not met"
>>> class("CAAACTAGGTCACAGGTCAAAGTCGAGCCAACCA")
"criterion met"
>>> class("TCTTGTAGATCAACAGGATGTTAAGAAAGATCGA")
"criterion met"
>>> class("GCTAGCAGGCCATTTGGGTCACTCATTGACGGGC")
"criterion met"
>>> class("ACAGACAGGTGATGAAGGTAAATCAGGCTATCAT")
"criterion not met"
>>> class("CGTCCAAGGTCACAGGTCAGTGAAGAGATGACGG")
"criterion met"
>>> class("TCGAGTAGGGTAGGGGCATTCAGAATGGCGTCGA")
"criterion met"
>>> class("CCTTACGGGTCACGAGGTGATAGCACGACGAGCG")
"criterion met"
>>> class("GCAGCTAGGTCAGGTTGGTCAGCTAACGGGTACG")
"criterion met"
>>> class("GCTGCTAGGTCAACTGGTGGTCAGCTAAAGCTCG")
"criterion met"
>>> class("AGAATGAGGTTATTAAGATCAGGGAGTTGCGGTC")
"criterion met"
>>> class("ACTTACAGGTCAACGAGGTTATAGCACGCGTATA")
"criterion met"
>>> class("CGCCCAAGGTCAAAGGTCAGTGAAGAGATGACGG")
"criterion met"
>>> class("ATCTCTAGGTATAAGTTCAGTGAATCCCGAGGAT")
"criterion not met"
>>> class("TCAGACAGGTGAAGGGAACTCAGGTACGCAGTCG")
"criterion met"
>>> class("GCAGACAGGTGAAACGCAGGTAACTGAGGGTGGC")
"criterion not met"
>>> class("CCTCGGAAGACAGAAGGTCAGAGCTGTCCGCTTT")
"criterion not met"
>>> class("TAGCCTAGGTCTTGCGGGCCAGTATAGTGTCGGC")
"criterion not met"
>>> class("CCTCGGAGGACAACGGGAGGTCAGAGCTGCCAGA")
"criterion not met"
>>> class("TATACAGGGTTAAAGGCCAGAGTACGAATGTCGA")
"criterion not met"
>>> class("TCGAGTAGGTTACCAATGGGGAATTCAGCTTTCT")
"criterion met"
>>> class("TCTTGTAGATCAATAGAGGTTAAGGAAGTGCGCT")
"criterion met"
>>> class("TGTCAAATTTCAAAGGTAACGTAAGTATCCACAC")
"criterion not met"
>>> class("AGAACGAGGTTATTAAGATCAGGGAATTGCGGTC")
"criterion met"
>>> class("ACTTACGGTTCAACGAGGTTATAGCACGCGTATA")
"criterion not met"
>>> class("TCTTGTAGATCAGCAGGTTAAGATAGCTGGCCAA")
"criterion met"
>>> class("GCAACTGGGGCAAAGCAGGTTACCATAAGGTTGG")
"criterion met"
>>> class("CCAGACAGGTGATAGGTAACTCAGTCTGGTACGC")
"criterion not met"
>>> class("CAAACTAGGTCAAGAAGTCAAAGTCCGCTTCCCG")
"criterion met"
>>> class("TCTGCTAGGTCAACGATGGTCAGCTTATCTGCTA")
"criterion met"
>>> class("AGAATGAGATTATTAAGATCAGGGAATTGCGGTC")
"criterion not met"
>>> class("CCTGCTAGGTCATGGTCTGCTAATCTACAGTATG")
"criterion met"
>>> class("CTTATTAGTTGACCATAAGGGCAACCGAAGCTCG")
"criterion not met"
>>> class("GCTGCTAGGTCAGGTTGGGCAGCTAACGGGTACG")
"criterion met"
>>> class("CAAACTAGGTCACAGAGGTCAGAGTCCGTGCGTA")
"criterion met"
>>> class("CCTACTCGGCCAAAGGTCATTGATTCCAATGCTC")
"criterion met"
>>> class("ACTTACGGGTCAACGAGGTTATAGCCCGCGTATA")
"criterion met"
>>> class("TCTTGTAGATCAATAGAGGTTAAGCAAGTGCGCT")
"criterion met"
>>> class("ATCTCTAGGTAAGACTCTGTTCAGTGAAGAACGC")
"criterion met"
>>> class("AGTCAAAGTTCACCTAGGTAACGTAAGATATGCT")
"criterion met"
>>> class("CTGGAAAGGTCGGTTGAGGTGAGTATACGGATAA")
"criterion not met"

---

# System: VDR:RXRa (NR concentration 270 nM, RXRa partner concentration 90 nM)
# Assay protocol: PBM binding z-score (relative to random genomic background probes); higher = stronger binding; sequences stand for … in GC…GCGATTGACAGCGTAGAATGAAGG
Reported endpoint: PBM binding z-score

>>> endpoint_result("GCAGACAGGTGAAATGCAGGTAACTCAGGGTGGC")
-0.417
>>> endpoint_result("AGAATGAGGTTATTAAGATAAGGGAATTGCGGTC")
1.3
>>> endpoint_result("CAAACTAGGTCAAGGTCCAAGTCGGTTTGTGCCA")
2.18
>>> endpoint_result("ATCTCTAGGTAACCAAGTTCGGTGAATGCCGAAC")
1.83
>>> endpoint_result("CCTAACAGGCCAGGGTCACTCAAGCATTTCGCTT")
2.86
>>> endpoint_result("CTCGAAAGGTCGTGCTCAGGGGAGTATACCAAAC")
3.14
>>> endpoint_result("TCTCGGAGGACTCGAAAGGTCAGAGCTCGACATC")
2.4
>>> endpoint_result("ATCGAAAGGTCGTGAGGTGGGTATACAGAAAGGC")
3.58
>>> endpoint_result("CCTCGGAGGACAACAGGAGGTTAGAGCTGCCAGA")
-0.265
>>> endpoint_result("CGGAGTAGGTTATGGGGCATTCAGGCAACGGTGA")
0.00597
>>> endpoint_result("AGTCAAAATTCAGGACGAGGTAACGTAAAGCACG")
-0.107
>>> endpoint_result("CTTGCTAGGTCAATGGTCAGCTAAAGCAGCTCGC")
0.921
>>> endpoint_result("ATATTTAGGTTATCGGGTCATTCAGTTTGCGCAT")
5.35
>>> endpoint_result("TCTAGTTGGTCACGGAGGTCACTCACGACGGGTA")
5.6
>>> endpoint_result("GCTCGTAGATCAAGGTTAAGAAAGACTAAGCTAA")
-0.0501
>>> endpoint_result("TCTGCTAGATCAACGATGGTCAGCTAATCTGCTA")
-0.489
>>> endpoint_result("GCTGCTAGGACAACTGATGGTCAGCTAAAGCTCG")
-0.904
>>> endpoint_result("CGAACTAGGTCATCCCGGACAGTGAATACATTGA")
3.63
>>> endpoint_result("AGTCAAAGTTCATCTAGGTTACGTAAGATATGCT")
5.8
>>> endpoint_result("TCTTGTAGATCAGTAGGTTAAGAAAGCTGGCCAA")
0.673
>>> endpoint_result("CCGACTGGGGCAAACGTTACCATACTCAGTACGA")
-0.23
>>> endpoint_result("ATCTCTAGGTAACATGTTCAGTGAAAGAGAGGAC")
0.0615
>>> endpoint_result("CCAGACAGGTGAAAGGTAACTCAATCTGGTACGC")
0.936
>>> endpoint_result("ATATGAAGGTTAAGGGTCATTCAGGTTGGTTCGC")
6.02
>>> endpoint_result("GTACCAAGGTGAATAAGTCGTTGATGAGTAGGCG")
0.0767
>>> endpoint_result("AGCGAAAGGTCGACGAGGTGAGTATACACCGTTT")
5.23
